assay: yeast display, Sf9 membrane polyspecificity reagent, FACS + sequencing; frameworks hold sequencing errors
parameter measured: polyreactivity (PSR sort gate)

// below: answered sequences
sequence data: QVQLVESGGGLVQAGGSLRLSCAASGRTFVHYAMGWYRPAPGKERELVAAITWNGGRTYYADSVKGRFTISRDNAKNTVYLQMNSLKPEDTAVYYCAADGKYYHRRPGWPIYDYWGQGTQVTVSS
result: high polyreactivity

sequence data: QDQLVESGGGLVQAGGSLRLSCAASGYTFSYYAMGWYRQAPGKERELVARISWGGGSTYYADSVKGRFTISRDNAKNTVYLQMNSLKPEDTAVYYCNARDLGRDWYWPEDDYWGQGTQVTVSS
result: low polyreactivity

sequence data: QDQLVESGGGLVQAGGSLRLSCAASGFTFARNGMGWYRQAPVKEREFVAAITRSGGRTYYADSVKGRFTISRDNAKNTVYLQMNSLKPQDTAVYYCAAATSYGKSEYDYWGQGTQVTVSS
result: high polyreactivity

sequence data: QVQLVESGGGLVQAGGSLRLSFDASGLIFWGYAMGWYRQAPGKERELVAAISSSCGSTYYADSVKGRFTISRDNAKNTVYLEMNSLQPEDTAVYYCNADYTYYPGYDFWGQGTQVTVSS
result: low polyreactivity

Would you kindly look at the next entry?
Look up polyreactivity (PSR sort gate) for this sequence: `QVQLVESGGGLVQAGGSLRLSCAASGSTIGSYAMRLSRQAPGTERELVAVITSDGRTNYADSVKGRFTISRDNAKNTVYLQMNSLKPEDTAVYYCAAGYGRWRYGTGVYDNYYYWGQGTQVTVSS`
low polyreactivity
